IC50 reference
Test system: VCaP cells
Assay: Cellular potency (IC50) in VCaP cells
Type: cell-based
Conditions: Homo sapiens, VCaP

Sample C[C@H]1CC2(CCN(c3ccc(CN4CCN(C5CCN(c6cc7c(cc6F)C(=O)N(C6CCC(=O)NC6=O)C7=O)CC5)CC4)cn3)CC2)CN1c1ccc(C#N)c(Cl)c1 (some centres unmarked) [compound 165] — what was its IC50?
< 10 nM

Sample C[C@H]1CC2(CCN(c3ccc(N4CCN(CC5CN(c6ccc7c(c6)C(=O)N(C6CCC(=O)NC6=O)C7=O)C5)CC4)cc3)CC2)CN1c1ccc(C#N)c(Cl)c1 (some centres unmarked) [compound 28] — what was its IC50?
< 10 nM
